# Assayed System: Protein cereblon/Androgen receptor (Homo sapiens, UniProt P10275+Q96SW2)
# Sequence (P10275 whole entry, looked up): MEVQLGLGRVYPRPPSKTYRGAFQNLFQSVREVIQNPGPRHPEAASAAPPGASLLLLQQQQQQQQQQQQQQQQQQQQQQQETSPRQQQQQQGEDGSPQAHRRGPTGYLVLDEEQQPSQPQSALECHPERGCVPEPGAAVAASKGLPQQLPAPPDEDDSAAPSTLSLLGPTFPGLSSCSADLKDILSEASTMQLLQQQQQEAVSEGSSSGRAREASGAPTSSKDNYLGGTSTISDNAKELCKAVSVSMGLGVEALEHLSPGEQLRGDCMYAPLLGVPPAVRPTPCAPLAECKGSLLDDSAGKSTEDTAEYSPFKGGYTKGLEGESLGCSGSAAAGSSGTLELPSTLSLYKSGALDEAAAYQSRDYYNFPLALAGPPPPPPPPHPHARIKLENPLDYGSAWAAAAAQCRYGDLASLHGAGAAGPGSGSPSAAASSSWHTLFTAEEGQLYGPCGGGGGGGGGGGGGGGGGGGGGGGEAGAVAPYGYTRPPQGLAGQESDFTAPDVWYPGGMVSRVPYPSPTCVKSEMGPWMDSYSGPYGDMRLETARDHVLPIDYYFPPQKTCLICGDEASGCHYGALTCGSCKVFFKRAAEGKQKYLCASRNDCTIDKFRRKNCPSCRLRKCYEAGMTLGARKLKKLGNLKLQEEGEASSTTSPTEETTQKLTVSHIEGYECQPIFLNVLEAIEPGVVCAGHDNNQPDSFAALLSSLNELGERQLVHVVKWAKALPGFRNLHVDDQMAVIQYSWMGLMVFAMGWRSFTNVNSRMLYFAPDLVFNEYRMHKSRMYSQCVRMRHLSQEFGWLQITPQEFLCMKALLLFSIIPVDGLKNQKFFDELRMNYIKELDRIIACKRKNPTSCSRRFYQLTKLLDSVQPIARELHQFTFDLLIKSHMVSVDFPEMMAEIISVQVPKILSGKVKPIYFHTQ
# Sequence (Q96SW2 whole entry, looked up): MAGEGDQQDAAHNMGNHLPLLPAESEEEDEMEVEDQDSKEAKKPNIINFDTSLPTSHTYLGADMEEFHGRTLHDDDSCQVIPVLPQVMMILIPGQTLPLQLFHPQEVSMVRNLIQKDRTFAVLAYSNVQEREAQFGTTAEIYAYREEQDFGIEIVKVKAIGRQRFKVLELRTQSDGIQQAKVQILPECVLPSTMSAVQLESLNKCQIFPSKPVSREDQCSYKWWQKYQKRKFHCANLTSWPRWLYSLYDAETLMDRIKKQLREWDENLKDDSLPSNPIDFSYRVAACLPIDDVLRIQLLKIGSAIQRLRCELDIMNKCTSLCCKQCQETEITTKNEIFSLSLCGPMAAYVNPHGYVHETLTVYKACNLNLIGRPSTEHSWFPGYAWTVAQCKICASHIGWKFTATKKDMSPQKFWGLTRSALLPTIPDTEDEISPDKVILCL
# Protocol Summary: Protac activity at CRBN/AR in human LNCaP cells assessed as AR degradation at 0.1 uM by western blotting analysis relative to control
# Type: cell-based
Experimental Readout: Activity (%)

| Compound | Experimental Readout | Value Observed |
| --- | --- | --- |
| CC1(C)[C@H](NC(=O)c2ccc(N3CCN(CCOC4CCN(C(=O)CNc5ccc6nnn(C7CCC(=O)NC7=O)c(=O)c6c5)CC4)CC3)cc2)C(C)(C)[C@H]1Oc1ccc(C#N)c(Cl)c1 (stereo partly drawn) | Activity | 77 |
| CC1(C)[C@H](NC(=O)c2ccc(N3CCN(CCOC4CCN(C(=O)C5CN(c6ccc7nnn(C8CCC(=O)NC8=O)c(=O)c7c6)C5)CC4)CC3)cc2)C(C)(C)[C@H]1Oc1ccc(C#N)c(Cl)c1 (stereo partly drawn) | Activity | 82 |
| CC1(C)[C@H](NC(=O)c2ccc(N3CCN(CCOC4CCN(c5ccc6nnn(C7CCC(=O)NC7=O)c(=O)c6c5)CC4)CC3)cc2)C(C)(C)[C@H]1Oc1ccc(C#N)c(Cl)c1 (stereo partly drawn) | Activity | 86 |
| CC1(C)[C@H](NC(=O)c2ccc(N3CCN(CC4CCN(C(=O)CNc5ccc6nnn(C7CCC(=O)NC7=O)c(=O)c6c5)CC4)CC3)cc2)C(C)(C)[C@H]1Oc1ccc(C#N)c(Cl)c1 (stereo partly drawn) | Activity | 70 |
| CC1(C)[C@H](NC(=O)c2ccc(N3CCN(C4CC5(CCN(C(=O)CNc6ccc7nnn(C8CCC(=O)NC8=O)c(=O)c7c6)CC5)C4)CC3)cc2)C(C)(C)[C@H]1Oc1ccc(C#N)c(Cl)c1 (stereo partly drawn) | Activity | 61 |
| CC1(C)[C@H](NC(=O)c2ccc(N3CCN(CC4CCN(C(=O)COc5ccc6nnn(C7CCC(=O)NC7=O)c(=O)c6c5)CC4)CC3)cc2)C(C)(C)[C@H]1Oc1ccc(C#N)c(Cl)c1 (stereo partly drawn) | Activity | 89 |

a = CC1(C)[C@H](NC(=O)c2ccc(N3CCN(C4CC5(CCN(C(=O)C6CCN(c7ccc8nnn(C9CCC(=O)NC9=O)c(=O)c8c7)CC6)CC5)C4)CC3)cc2)C(C)(C)[C@H]1Oc1ccc(C#N)c(Cl)c1 (stereo partly drawn)
b = CC1(C)[C@H](NC(=O)c2ccc(N3CCN(CC4CCN(c5cccc6nnn(C7CCC(=O)NC7=O)c(=O)c56)CC4)CC3)cc2)C(C)(C)[C@H]1Oc1ccc(C#N)c(Cl)c1 (stereo partly drawn)
Between a and b , whose recorded Activity is greater? # respond with the chosen item's label
a
(a: 85%, b: 15%)

----------
# Protocol Summary: Cmax in ICR mouse at 5 mg/kg, ip by LC-MS/MS analysis
# Format: ADME, organism-based
# Set-up: route intraperitoneal, dose 5 mg/kg
# Condition: in vivo
Experimental Readout: Cmax (ng/mL)

Illustrative cases are given below, each with its answer.
| Molecule | Value Observed |
| --- | --- |
| CC1(C)[C@H](NC(=O)c2ccc(N3CCN(C4CC5(CCN(C(=O)C6CCN(c7ccc8nnn(C9CCC(=O)NC9=O)c(=O)c8c7)CC6)CC5)C4)CC3)cc2)C(C)(C)[C@H]1Oc1ccc(C#N)c(Cl)c1 (some centres undefined) | 2780 |
| CC1(C)[C@H](NC(=O)c2ccc(N3CCN(CCOC4CCN(c5ccc6nnn(C7CCC(=O)NC7=O)c(=O)c6c5)CC4)CC3)cc2)C(C)(C)[C@H]1Oc1ccc(C#N)c(Cl)c1 (some centres undefined) | 1780 |

P = CC1(C)[C@H](NC(=O)c2ccc(N3CCN(CCOC4CCN(C(=O)C5CN(c6ccc7nnn(C8CCC(=O)NC8=O)c(=O)c7c6)C5)CC4)CC3)cc2)C(C)(C)[C@H]1Oc1ccc(C#N)c(Cl)c1 (some centres undefined)
Q = CC1(C)[C@H](NC(=O)c2ccc(N3CCN(CC4CCN(C(=O)C5CN(c6ccc7nnn(C8CCC(=O)NC8=O)c(=O)c7c6)C5)CC4)CC3)cc2)C(C)(C)[C@H]1Oc1ccc(C#N)c(Cl)c1 (some centres undefined)
Could you please tell me which of these two has the higher Cmax: P or Q ? Please reply using the label of the selected record.
Q
(Q: 5540 ng/mL, P: 2010 ng/mL)

Source of measurements: ChEMBL document CHEMBL4706590
